molecular target: RXRβ (Mus musculus, UniProt P28704); construct: expressed in transfected cells; experiment: holoreceptor transactivation assay, RXRβ; format: cell-based; details: relative to 10^-6 M cyclopropyl penta-2,4-dienoic acid reference (RXRs); read-out: % efficacy (RXRβ transactivation)
Sequence (P28704 whole entry): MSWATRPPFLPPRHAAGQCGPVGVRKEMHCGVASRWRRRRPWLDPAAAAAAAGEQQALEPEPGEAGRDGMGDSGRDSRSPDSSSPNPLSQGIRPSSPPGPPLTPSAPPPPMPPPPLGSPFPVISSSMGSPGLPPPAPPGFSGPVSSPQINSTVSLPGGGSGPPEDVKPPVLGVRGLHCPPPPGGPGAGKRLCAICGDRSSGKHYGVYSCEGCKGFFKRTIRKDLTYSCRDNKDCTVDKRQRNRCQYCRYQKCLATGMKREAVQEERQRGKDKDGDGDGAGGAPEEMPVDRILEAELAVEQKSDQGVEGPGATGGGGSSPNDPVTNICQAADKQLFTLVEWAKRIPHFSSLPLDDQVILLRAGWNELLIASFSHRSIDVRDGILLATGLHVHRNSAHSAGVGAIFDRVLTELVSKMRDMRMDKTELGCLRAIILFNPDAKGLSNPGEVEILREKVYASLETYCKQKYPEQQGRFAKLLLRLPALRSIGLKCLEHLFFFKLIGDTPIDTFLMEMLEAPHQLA
Assign class by Emax: not lower than 60% means MET; lower than 60% means NOT MET.

Record excerpt, results attached:
{"LINE NOTATION": "CCN(c1ccc(C(=O)O)cc1)c1cc(C(C)C)c2c(c1)C(C)(C)CO2", "GROUP LABEL": "MET"}
{"LINE NOTATION": "CCN(c1ccc(C(=O)O)cc1)c1cc(C(C)(C)C)c2c(c1)C(C)(C)CO2", "GROUP LABEL": "NOT MET"}
{"LINE NOTATION": "CCCN(c1ccc(C(=O)O)cc1)c1ccc2c(c1)C(C)(C)OC2(C)C", "GROUP LABEL": "MET"}
{"LINE NOTATION": "CCc1cc(N(c2ccc(C(=O)O)cc2)C(C)C)cc2c1OCC2(C)C", "GROUP LABEL": "NOT MET"}
{"LINE NOTATION": "CC(C)c1cc(N(c2ccc(C(=O)O)cc2)C(C)C)cc2c1OCC2(C)C", "GROUP LABEL": "NOT MET"}
{"LINE NOTATION": "CCc1cc(N(CC)c2ccc(C(=O)O)cc2)cc2c1OCC2(C)C", "GROUP LABEL": "MET"}
{"LINE NOTATION": "CC(C)c1cc(N(C)c2ccc(C(=O)O)cc2)cc2c1OCC2(C)C", "GROUP LABEL": "NOT MET"}
{"LINE NOTATION": "CCN(c1ccc(C(=O)O)cc1)c1ccc2c(c1)C(C)(C)OC2(C)C", "GROUP LABEL": "MET"}

Input: Please tell me: is the compound CC(C)N(c1ccc(C(=O)O)cc1)c1ccc2c(c1)C(C)(C)OC2(C)C at or over 60% in terms of Emax?
Output: MET

Input: Hi team, for CCN(c1ccc(C(=O)O)cc1)c1cc2c(c(C(C)C)c1C)OCC2(C)C , is the recorded Emax at or above 60%?
Output: MET

Input: Emax >= 60% for Cc1c(N(c2ccc(C(=O)O)cc2)C(C)C)cc2c(c1C(C)(C)C)OCC2(C)C ?
Output: MET

Input: Test whether the compound CC(C)N(c1ccc(C(=O)O)cc1)c1cc(C(C)(C)C)c2c(c1)C(C)(C)CO2 records Emax of 60% or higher.
Output: NOT MET

====

Biological target: RXRα (Homo sapiens, UniProt P19793)
Sequence (P19793 1-462): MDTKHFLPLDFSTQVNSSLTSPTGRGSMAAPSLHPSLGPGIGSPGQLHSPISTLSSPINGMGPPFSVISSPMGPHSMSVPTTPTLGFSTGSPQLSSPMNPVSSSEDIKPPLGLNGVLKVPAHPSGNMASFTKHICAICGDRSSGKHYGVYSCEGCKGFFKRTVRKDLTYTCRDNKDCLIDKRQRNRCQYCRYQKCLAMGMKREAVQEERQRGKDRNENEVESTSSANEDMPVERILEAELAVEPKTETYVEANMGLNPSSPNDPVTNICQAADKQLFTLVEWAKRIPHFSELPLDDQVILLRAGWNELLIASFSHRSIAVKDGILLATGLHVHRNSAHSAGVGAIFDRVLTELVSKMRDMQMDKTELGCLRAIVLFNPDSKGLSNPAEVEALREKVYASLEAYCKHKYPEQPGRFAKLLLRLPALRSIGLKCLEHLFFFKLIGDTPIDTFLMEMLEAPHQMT
Test: holoreceptor transactivation assay, RXRα
Details: holoreceptor transactivation, RXRα; read-out: RXR Trans. EC50 α
MEASURE NAME: EC50 (nM)
Give just the numeric value; nM need not be written.

{"LINE NOTATION": "CCc1cc(N(c2ccc(C(=O)O)cc2)C(C)C)cc2c1OCC2(C)C", "TARGET OR TEST SYSTEM": "RXRα (Homo sapiens, UniProt P19793)", "UOM": "nM", "QUANTITATIVE RESULT": 203}

Input: Please look up its EC50: CC(C)N(c1ccc(C(=O)O)cc1)c1cc(C(C)(C)C)c2c(c1)C(C)(C)CO2
Output: 22

Input: Please give the measured EC50 for this compound: CCCCN(c1ccc(C(=O)O)cc1)c1ccc2c(c1)C(C)(C)OC2(C)C
Output: 161

Input: Look up EC50 for this compound: CC(C)c1cc(N(c2ccc(C(=O)O)cc2)C(C)C)cc2c1OCC2(C)C
Output: 16

Input: # EC50 lookup, item CCN(c1ccc(C(=O)O)cc1)c1ccc2c(c1)C(C)(C)OC2(C)C
Output: 39

Input: What EC50 value was documented for this compound, Cc1cc(N(c2ccc(C(=O)O)cc2)C(C)C)cc2c1OCC2(C)C ?
Output: 1000

Input: Returns the measured EC50 for the input compound. Input: CC(C)N(c1ccc(C(=O)O)cc1)c1ccc2c(c1)C(C)(C)OC2(C)C
Output: 57

Input: Looking for the measured EC50 of CCN(c1ccc(C(=O)O)cc1)c1cc(C)c2c(c1)C(C)(C)CO2 , can you help?
Output: 1000

Input: Field request: EC50 | item: CCCN(c1ccc(C(=O)O)cc1)c1ccc2c(c1)C(C)(C)OC2(C)C
Output: 40

Input: Entry under review: CCN(c1ccc(C(=O)O)cc1)c1cc(C(C)(C)C)c2c(c1)C(C)(C)CO2 . Reported EC50?
Output: 98

====

Examples of compounds with documented Ki follow.
Target: RARβ (Homo sapiens, UniProt P10826)
Sequence (P10826 1-448 isoform P10826-2): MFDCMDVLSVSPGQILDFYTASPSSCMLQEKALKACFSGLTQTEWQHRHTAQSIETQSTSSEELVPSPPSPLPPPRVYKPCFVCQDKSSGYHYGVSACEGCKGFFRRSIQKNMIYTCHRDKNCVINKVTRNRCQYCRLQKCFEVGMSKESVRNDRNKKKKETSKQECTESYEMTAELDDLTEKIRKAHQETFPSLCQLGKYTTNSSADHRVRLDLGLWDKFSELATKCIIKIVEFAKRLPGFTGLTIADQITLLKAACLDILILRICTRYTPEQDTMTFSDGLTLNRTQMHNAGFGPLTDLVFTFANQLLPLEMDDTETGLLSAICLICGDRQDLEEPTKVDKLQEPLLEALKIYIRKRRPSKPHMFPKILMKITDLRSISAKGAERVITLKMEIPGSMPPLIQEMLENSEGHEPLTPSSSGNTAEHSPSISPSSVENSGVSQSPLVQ

Reference set (4 entries):
{"COMPOUND": "CCc1cc(N(c2ccc(C(=O)O)cc2)C(C)C)cc2c1OCC2(C)C [Compound 42]", "Ki": "> 10 µM"}
{"COMPOUND": "CCc1cc(N(CC)c2ccc(C(=O)O)cc2)cc2c1OCC2(C)C [Compound 29]", "Ki": "> 10 µM"}
{"COMPOUND": "CC(C)N(c1ccc(C(=O)O)cc1)c1cc(C(C)(C)C)c2c(c1)C(C)(C)CO2 [Compound 44]", "Ki": "> 1 µM"}
{"COMPOUND": "Cc1cc(N(c2ccc(C(=O)O)cc2)C(C)C)cc2c1OCC2(C)C [Compound 41]", "Ki": "> 30 µM"}

Continue with the next compound.
Input: Requested read-out: Ki. Entry: CC(C)c1cc(N(C)c2ccc(C(=O)O)cc2)cc2c1OCC2(C)C [Compound 30]
Output: > 30 µM

====

Recorded pKi, one value per entry.
Target: RARα (Homo sapiens)
Sequence (P10276 1-462): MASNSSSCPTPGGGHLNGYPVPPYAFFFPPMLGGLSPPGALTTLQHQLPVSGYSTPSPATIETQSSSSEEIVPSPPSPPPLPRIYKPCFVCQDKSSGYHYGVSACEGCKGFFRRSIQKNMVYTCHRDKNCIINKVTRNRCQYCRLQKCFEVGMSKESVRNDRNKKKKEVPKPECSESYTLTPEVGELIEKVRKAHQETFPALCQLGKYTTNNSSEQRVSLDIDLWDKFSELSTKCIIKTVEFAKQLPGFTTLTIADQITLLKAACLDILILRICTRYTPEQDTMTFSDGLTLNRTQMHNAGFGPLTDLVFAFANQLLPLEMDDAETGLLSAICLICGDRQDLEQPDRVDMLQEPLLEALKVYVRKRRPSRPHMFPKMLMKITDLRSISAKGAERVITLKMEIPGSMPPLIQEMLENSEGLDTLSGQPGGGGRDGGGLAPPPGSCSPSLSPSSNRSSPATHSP
Assay: ligand binding assay, RARα
Conditions: read-out: RAR Bind. Ki α
For clarity, pKi is expressed as the negative log10 of concentration in mol/L.

Reference set, count: 2
{"MOLECULE": "CC(C)c1cc(N(C)c2ccc(C(=O)O)cc2)cc2c1OCC2(C)C [Compound 30]", "QUANTITATIVE RESULT": 4.80}
{"MOLECULE": "CCc1cc(N(C)c2ccc(C(=O)O)cc2)cc2c1OCC2(C)C [Compound 28]", "QUANTITATIVE RESULT": 5.03}

Next molecule, please.
Input: Form field: pKi recorded for CCN(c1ccc(C(=O)O)cc1)c1cc(C(C)C)c2c(c1)C(C)(C)CO2 [Compound 31] with RARα (Homo sapiens) (enter value)
Output: 4.60
